Experiment: Dissociation constant, pKa of the compound by capillary electrophoresis method
Assay type: physicochemical
propertyMeasured: pKa

[O-][S+]1CC(O)(CCc2ccccc2)C1 (centres undefined); > 12
O=S1(=O)CC(O)(CCc2ccccc2)C1; 9.31

Task: I'd like to know its pKa. The compound in question is OC1(CCc2ccccc2)CSC1
Result: > 12

Task: Entry OC1(CCc2ccccc2)COC1 : reported pKa = ?
Result: > 12

----------
Assay: Effective permeability of the compound assessed as membrane retention by PAMPA relative to control
Assay type: ADME
propertyMeasured: R% (%)
State just the number; it will be interpreted in %.

Reference set, count: 3
OC1(CCc2ccccc2)CSC1; 11.4
[O-][S+]1CC(O)(CCc2ccccc2)C1 (centres undefined); 10
O=S1(=O)CC(O)(CCc2ccccc2)C1; 10.7

Task: Look at this molecule and give its reported R%. OC1(CCc2ccccc2)COC1
Result: -11.9

----------
Target: Polyunsaturated fatty acid 5-lipoxygenase (Rattus norvegicus, UniProt P12527)
Sequence (P12527 whole entry): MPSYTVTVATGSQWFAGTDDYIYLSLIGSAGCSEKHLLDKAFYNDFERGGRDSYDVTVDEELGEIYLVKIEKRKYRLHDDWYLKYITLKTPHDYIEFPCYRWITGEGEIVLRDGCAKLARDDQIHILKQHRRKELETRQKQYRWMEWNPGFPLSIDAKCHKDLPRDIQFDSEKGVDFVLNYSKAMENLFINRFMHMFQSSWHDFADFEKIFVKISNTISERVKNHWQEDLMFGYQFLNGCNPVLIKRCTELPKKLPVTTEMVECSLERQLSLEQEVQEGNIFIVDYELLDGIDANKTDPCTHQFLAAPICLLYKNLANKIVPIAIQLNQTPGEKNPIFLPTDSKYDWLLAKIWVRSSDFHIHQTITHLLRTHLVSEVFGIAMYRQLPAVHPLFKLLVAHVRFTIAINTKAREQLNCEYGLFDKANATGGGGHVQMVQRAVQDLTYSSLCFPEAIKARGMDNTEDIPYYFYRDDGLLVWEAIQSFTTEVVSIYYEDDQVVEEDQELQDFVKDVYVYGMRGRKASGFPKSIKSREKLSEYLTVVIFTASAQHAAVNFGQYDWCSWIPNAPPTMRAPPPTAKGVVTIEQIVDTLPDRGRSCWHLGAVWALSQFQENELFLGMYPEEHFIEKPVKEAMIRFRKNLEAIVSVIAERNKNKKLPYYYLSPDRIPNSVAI
Test: Inhibition of 5-LOX in RBL1 cells assessed as reduction in LTB4 production using A23187-induced arachidonic acid as substrate preincubated for 2 hrs followed by A23187 addition measured after 15 mins by LC-MS/MS analysis
Parameter: pIC50. Scope: all listed entries.
Value format note: pIC50 is -log10 of concentration (mol/L); just state the number.

Worked cases, answers included:
CC(C)Cc1ccc(C(C)C2(O)COC2)cc1 (configuration not stated); 5.08
CC(C)Cc1ccc(C(C)C2(O)CS(=O)(=O)C2)cc1 (configuration not stated); 4.69
CC(C)Cc1ccc(C(C)C2(O)C[S+]([O-])C2)cc1 (configuration not stated); 4.93

Consider now this further compound.
Task: GET /values?readout=pIC50&item= CC(C)Cc1ccc(C(C)C2(O)CSC2)cc1 (configuration not stated)
Result: 5.12

----------
Assay: Effective permeability of the compound by PAMPA
Format: ADME
Settings: read-out: Peff
# reported Papp; entries follow
Provide the reading as a plain figure in ×10⁻⁶ cm/s.

O=S1(=O)CC(O)(CCc2ccccc2)C1; 12.2
OC1(CCc2ccccc2)COC1; 8.27

Task: What value of Papp has been recorded for this entry: OC1(CCc2ccccc2)CSC1
Result: 13.2

Task: Any idea what its Papp is? The compound is [O-][S+]1CC(O)(CCc2ccccc2)C1 (centres undefined)
Result: 6.23

----------
Experiment: n-Octanol-aqueous buffer distribution coefficient, log D of the compound at pH 7.4 by LC-MS method
Assay type: physicochemical
Each item that follows carries a reported logD.
Could you keep your reply to the number by itself?

OC1(CCc2ccccc2)CSC1; 2.99

Task: Would you mind telling me what logD value was observed for O=S1(=O)CC(O)(CCc2ccccc2)C1 ?
Result: 1.24

Task: GET /values?readout=logD&item= [O-][S+]1CC(O)(CCc2ccccc2)C1 (centres undefined)
Result: 1.22

Task: GET /values?readout=logD&item= OC1(CCc2ccccc2)COC1
Result: 2.07

----------
Molecular target: Cyclooxygenase (Rattus norvegicus, UniProt P35355+Q63921)
Assay: Inhibition of COX in RBL1 cells assessed as reduction in PGE2/D2 production using A23187-induced arachidonic acid as substrate preincubated for 2 hrs followed by A23187 addition measured after 15 mins by LC-MS/MS analysis
Type: cell-based
propertyMeasured: IC50

CC(C)Cc1ccc(C(C)C2(O)CSC2)cc1 (stereo unspecified); > 100 µM
CC(C)Cc1ccc(C(C)C2(O)C[S+]([O-])C2)cc1 (stereo unspecified); 17.4 µM
CC(C)Cc1ccc(C(C)C2(O)CS(=O)(=O)C2)cc1 (stereo unspecified); 14.6 µM
CC(C)Cc1ccc(C(C)C2(O)COC2)cc1 (stereo unspecified); 34.1 µM
CC(C)Cc1ccc(C2CC(O)=CC2=O)cc1 (stereo unspecified); 28.1 µM

Lab note: next molecule to report on.
Task: # get_value(readout='IC50', item= CC(C)Cc1ccc(C(C)c2nnn[nH]2)cc1 (stereo unspecified) )
Result: 31.8 µM
